system: Fibrinogen (Alexa647-labelled); experiment: fibrinogen binders on compound microarrays, profiling panel, artefact control for SMM control-protein annotation, biochemical, small-molecule microarray, 635/667 nm fluorescence (AID 1131); conditions: fibrinogen-A647 binding fluorescence, higher = more signal;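 further: z-score merges 667 nm fluorescence with per-spot signal-to-noise over triplicate slides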
Form field: composite z-score (one value per entry).
measuredProperty: composite z-score

{"columns": ["compound", "testTarget", "measuredProperty", "experimentalValue"],
 "data": [
  ["C[C@@]12COC[C@]13C=C(Br)[C@H](C2)[C@@]1(CO1)C3=O", "Fibrinogen (Alexa647-labelled)", "composite z-score", -0.376],
  ["COC(=O)[C@@]1(Cc2ccc(OC)cc2)[C@H]2c3cc(C(=O)N4CCCC4)n(Cc4ccc(S(C)(=O)=O)cc4)c3C[C@H]2CN1C(=O)c1ccccc1", "Fibrinogen (Alexa647-labelled)", "composite z-score", 0.996],
  ["O=C(O)[C@H]1C[C@H]2C(=O)N[C@@H](Cc3ccccc3)C(=O)N2[C@H]1c1cccc(OCCO)c1", "Fibrinogen (Alexa647-labelled)", "composite z-score", 0.472],
  ["CN1C(=O)C2C(C1=O)C1C=C(CCCO)C2C(c2cccs2)N1Cc1cc2c(cc1Br)OCO2 (centres undefined)", "Fibrinogen (Alexa647-labelled)", "composite z-score", 1.04],
  ["C=C(/C(=C/C[C@H](OC(=O)c1ccncc1)c1cccc(OCCO)c1)c1cnc2ccccc2c1)C(C)C", "Fibrinogen (Alexa647-labelled)", "composite z-score", 0.247],
  ["NCCCCCNC(=O)[C@@H]1C[C@@H]2C(=O)N3CCC[C@H]3C(=O)N2[C@@H]1c1ccc(O)cc1", "Fibrinogen (Alexa647-labelled)", "composite z-score", 0.788],
  ["COc1ccc(C#Cc2ccc3c(c2)[C@]2(C(=O)N3)[C@H](C(=O)Nc3nc4ccccc4s3)[C@H]3C(=O)O[C@H](c4ccccc4)[C@H](c4ccccc4)N3[C@@H]2c2ccccc2OCCO)cc1", "Fibrinogen (Alexa647-labelled)", "composite z-score", 0.969],
  ["CCOC(=O)C[C@H]1[C@H](OC(=O)c2ccc(-c3ccccc3)cc2)[C@@H](NC(=O)Cc2ccc(OC)cc2)c2cc(OCCCO)ccc2N1C(=O)Cc1ccc(OC)cc1", "Fibrinogen (Alexa647-labelled)", "composite z-score", 0.15],
  ["COc1ccc(C#Cc2ccc3c(c2)[C@]2(C(=O)N3)[C@H](C(=O)N3CCCCCCC3)[C@H]3C(=O)O[C@H](c4ccccc4)[C@H](c4ccccc4)N3[C@@H]2c2ccc(O)cc2)cc1", "Fibrinogen (Alexa647-labelled)", "composite z-score", 0.729],
  ["CCCC=C(CCC)[C@@H](NS(=O)(=O)c1cccc2cccnc12)c1ccc(-c2ccccc2)cc1", "Fibrinogen (Alexa647-labelled)", "composite z-score", 0.98],
  ["COc1cc2c(cc1O)C(c1ccc(CN3CCCC3)cc1)N(C)CC2 (centres undefined)", "Fibrinogen (Alexa647-labelled)", "composite z-score", 0.109],
  ["CO[C@H]1O[C@H](CO)[C@@H](OC(=O)Nc2cccc(F)c2)[C@H](OC(=O)Nc2ccccc2-c2ccccc2)[C@H]1OC(=O)Nc1ccccc1-c1ccccc1", "Fibrinogen (Alexa647-labelled)", "composite z-score", 0.986],
  ["C=CCNC(=O)[C@@H]1[C@H]2C(=O)O[C@H](c3ccccc3)[C@H](c3ccccc3)N2[C@H](c2ccc(O)cc2)[C@@]12C(=O)Nc1ccc(C#CCC(C(=O)OC)C(=O)OC)cc12", "Fibrinogen (Alexa647-labelled)", "composite z-score", 0.0847],
  ["COCC(=C=CC[C@@H](O)c1cccc(OCCO)c1)CCO", "Fibrinogen (Alexa647-labelled)", "composite z-score", 0.984],
  ["CCOC(=O)C1=CCC(c2ccccc2)N(S(=O)(=O)c2ccc([N+](=O)[O-])cc2)C1 (centres undefined)", "Fibrinogen (Alexa647-labelled)", "composite z-score", -0.773],
  ["CC(C)=CCCC(C)=CC(O)C1C=CC2C(=O)N(c3ccccc3)C(=O)C2N1Nc1ccccc1F (centres undefined)", "Fibrinogen (Alexa647-labelled)", "composite z-score", 0.988],
  ["COC(=O)[C@@]1(Cc2ccc(F)cc2)[C@H]2c3cc(C(=O)N4CCCC4)n(CC4CC4)c3C[C@H]2CN1C(=O)c1ccccc1", "Fibrinogen (Alexa647-labelled)", "composite z-score", 1.03],
  ["C=CCN1C(=O)[C@]2(O[C@H](CCO)[C@@H]([Si](C)(C)c3ccc(OC)cc3)[C@@H]2C)c2cc(N3C(=O)COc4ccccc43)ccc21", "Fibrinogen (Alexa647-labelled)", "composite z-score", 0.55],
  ["O=C(N1CCOCC1)[C@@]1(CCS(=O)(=O)c2ccccc2)N=C(c2ccc(OCCCO)cc2)O[C@H]1c1ccccc1", "Fibrinogen (Alexa647-labelled)", "composite z-score", 1],
  ["CCCCC(=C=CC[C@H](O)c1ccc(OCCO)cc1)C[C@H](O)COCc1ccccc1", "Fibrinogen (Alexa647-labelled)", "composite z-score", -0.56],
  ["Cc1ccc(C(C)CC(O)C2C=CC3C(=O)N(c4ccccc4)C(=O)C3N2Nc2ccc(C#N)cc2)o1 (centres undefined)", "Fibrinogen (Alexa647-labelled)", "composite z-score", 1.03],
  ["COc1cc2c(cc1OC)CN(C(=O)[C@@H]1[C@H]3C(=O)O[C@H](c4ccccc4)[C@H](c4ccccc4)N3[C@H](c3ccc(O)cc3)[C@@]13C(=O)Nc1ccc(C#CCCO)cc13)CC2", "Fibrinogen (Alexa647-labelled)", "composite z-score", 0.876],
  ["COC(=O)C(CC#Cc1ccc2c(c1)[C@]1(C(=O)N2)[C@H](c2ccc(OCCO)cc2)N2[C@H](c3ccccc3)[C@H](c3ccccc3)OC(=O)[C@H]2[C@@H]1C(=O)N1CCN(c2ncccn2)CC1)C(=O)OC", "Fibrinogen (Alexa647-labelled)", "composite z-score", 0.993],
  ["CN(C)CCCC[C@@H]1NC(=O)[C@@H]2C[C@H](C(=O)O)[C@H](c3cccc(OCCO)c3)N2C1=O", "Fibrinogen (Alexa647-labelled)", "composite z-score", 0.438],
  ["COC(=O)C1=CC(CCCO)=CC(c2ccc(CN3CCCC3)cc2)N(Cc2cc3c(cc2Br)OCO3)C=C1C(=O)OC (centres undefined)", "Fibrinogen (Alexa647-labelled)", "composite z-score", 1.02],
  ["Cc1cccc([C@H]2C[C@H]3C(I)=C[C@@H]2C(=O)[C@]32CO2)c1", "Fibrinogen (Alexa647-labelled)", "composite z-score", -0.775],
  ["CN1C(=O)C2C=CC(C(O)c3cc(C(F)(F)F)cc(C(F)(F)F)c3)N(NC(=O)OC(C)(C)C)C2C1=O (centres undefined)", "Fibrinogen (Alexa647-labelled)", "composite z-score", 0.982],
  ["COCC(=C=CC[C@H](O)c1cccc(OCCO)c1)C[C@H](O)COCc1ccccc1", "Fibrinogen (Alexa647-labelled)", "composite z-score", -0.749],
  ["O=C1OCC=C[C@H]2OC34C=CCN(c5ccc6ccccc6c5)C(=O)[C@H]3N(CCCCCO)C(=O)[C@@H]4[C@@H]12 (some centres undefined)", "Fibrinogen (Alexa647-labelled)", "composite z-score", -0.639]
]}
